tested on: Linezolid and Vancomycin Resistant Enterococcus faecium (strain 11); assay: In vitro antibacterial activity, broth microdilution MIC90; type: cell-based; conditions: Enterococcus faecium
Here, each record is paired with measured MIC90 data.
The response must be a number in µg/mL with no trailing unit.

Compound: COC(=O)NC[C@H]1CN(c2ccc(-c3ccc(N4C=NN(C(=O)CO)CC4)nc3)c(F)c2)C(=O)O1 [Compound 25]
Measurement target: Linezolid and Vancomycin Resistant Enterococcus faecium (strain 11)
MIC90 [µg/mL]: 2

Compound: CNC(=O)N1CCN(c2ccc(-c3ccc(N4C[C@H](Cn5ccnn5)OC4=O)cc3F)cn2)C=N1 [Compound 34]
Measurement target: Linezolid and Vancomycin Resistant Enterococcus faecium (strain 11)
MIC90 [µg/mL]: 4

Compound: O=C(C(O)CO)N1CCN(c2ccc(-c3ccc(N4C[C@H](Cn5ccnn5)OC4=O)cc3F)cn2)C=N1 (stereo partly shown) [Compound 37]
Measurement target: Linezolid and Vancomycin Resistant Enterococcus faecium (strain 11)
MIC90 [µg/mL]: 8

Compound: CC(=O)NC[C@H]1CN(c2ccc(-c3ccc(N4C=NN(C(=O)CN)CC4)nc3)c(F)c2)C(=O)O1 [Compound 19]
Measurement target: Linezolid and Vancomycin Resistant Enterococcus faecium (strain 11)
MIC90 [µg/mL]: 2

Which MIC90 is reported for this compound? C#CCN1C=NN(c2ccc(-c3ccc(N4C[C@H](CNC(C)=O)OC4=O)cc3F)cn2)CC1 [Compound 55] 4

What does the data say about its MIC90? Entry: C#CCN1CCN(c2ccc(-c3ccc(N4C[C@H](CNC(C)=O)OC4=O)cc3F)cn2)C=N1 [Compound 8] 4

What measured MIC90 goes with COC(=O)NC[C@H]1CN(c2ccc(-c3ccc(N4C=NN(C)CC4)nc3)c(F)c2)C(=O)O1 [Compound 24] ? 8

These measurements were taken from patent US8846669B2.
